- Assay Target: Metabotropic glutamate receptor 5 (Homo sapiens)
- Sequence (P41594 whole entry): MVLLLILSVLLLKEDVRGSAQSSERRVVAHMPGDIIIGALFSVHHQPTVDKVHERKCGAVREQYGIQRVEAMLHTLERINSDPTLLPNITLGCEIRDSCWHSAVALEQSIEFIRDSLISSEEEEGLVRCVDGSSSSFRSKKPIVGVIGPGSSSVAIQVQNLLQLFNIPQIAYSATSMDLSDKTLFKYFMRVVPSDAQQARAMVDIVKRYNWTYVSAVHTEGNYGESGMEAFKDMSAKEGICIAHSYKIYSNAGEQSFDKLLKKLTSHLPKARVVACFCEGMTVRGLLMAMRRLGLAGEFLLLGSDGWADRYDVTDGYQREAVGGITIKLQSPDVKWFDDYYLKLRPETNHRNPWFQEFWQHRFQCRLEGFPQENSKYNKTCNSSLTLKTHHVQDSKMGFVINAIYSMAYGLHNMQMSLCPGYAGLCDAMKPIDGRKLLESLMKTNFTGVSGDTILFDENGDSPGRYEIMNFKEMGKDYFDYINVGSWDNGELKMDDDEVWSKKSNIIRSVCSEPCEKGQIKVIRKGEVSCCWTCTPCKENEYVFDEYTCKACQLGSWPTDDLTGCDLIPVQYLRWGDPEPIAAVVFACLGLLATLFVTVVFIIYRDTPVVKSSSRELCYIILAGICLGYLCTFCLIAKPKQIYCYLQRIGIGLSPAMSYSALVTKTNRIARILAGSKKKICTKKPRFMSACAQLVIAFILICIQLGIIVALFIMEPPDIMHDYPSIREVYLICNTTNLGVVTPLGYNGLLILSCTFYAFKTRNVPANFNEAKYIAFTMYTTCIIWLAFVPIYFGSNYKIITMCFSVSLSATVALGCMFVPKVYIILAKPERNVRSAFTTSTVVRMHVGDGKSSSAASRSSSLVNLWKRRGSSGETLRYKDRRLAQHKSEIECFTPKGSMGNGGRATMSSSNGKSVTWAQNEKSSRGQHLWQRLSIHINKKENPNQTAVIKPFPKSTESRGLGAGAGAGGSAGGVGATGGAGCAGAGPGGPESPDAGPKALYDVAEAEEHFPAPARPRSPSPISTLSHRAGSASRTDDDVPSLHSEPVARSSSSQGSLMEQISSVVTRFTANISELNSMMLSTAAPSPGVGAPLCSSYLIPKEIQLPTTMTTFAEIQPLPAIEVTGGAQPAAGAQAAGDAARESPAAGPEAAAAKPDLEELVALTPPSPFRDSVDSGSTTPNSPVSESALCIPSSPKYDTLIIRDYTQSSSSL
- Assay Protocol: Antagonist activity at human mGluR5 expressed in CHO cells assessed as […] calcium mobilization
- Type: functional, cell-based
Measured pIC50 accompanies every entry in the list below.
Scale: pIC50 equals -log10([C]), with [C] in mol/L.

Solved entries (count: 8):
Compound: Cc1c(C(C)OC(=O)Nc2ccccc2)sc2nc(Cl)nn12 (stereo not given)
Assay Target: Metabotropic glutamate receptor 5 (Homo sapiens)
Measured Metric: pIC50
Numeric Result: 8.00

Compound: Cc1c(C(C)OC(=O)Nc2cccc(Cl)c2)sc2ncnn12 (stereo not given)
Assay Target: Metabotropic glutamate receptor 5 (Homo sapiens)
Measured Metric: pIC50
Numeric Result: 7.40

Compound: Cc1c(C(C)OC(=O)Nc2ccccc2Cl)sc2ncnn12 (stereo not given)
Assay Target: Metabotropic glutamate receptor 5 (Homo sapiens)
Measured Metric: pIC50
Numeric Result: 6.30

Compound: Cc1c(C(C)OC(=O)Nc2ccccc2)sc2nc(C(F)(F)F)nn12 (stereo not given)
Assay Target: Metabotropic glutamate receptor 5 (Homo sapiens)
Measured Metric: pIC50
Numeric Result: 7.40

Compound: Cc1c(C(C)OC(=O)NC2CCCCC2)sc2ncnn12 (stereo not given)
Assay Target: Metabotropic glutamate receptor 5 (Homo sapiens)
Measured Metric: pIC50
Numeric Result: 5.50

Compound: Cc1c(C(C)OC(=O)Nc2cccc(F)c2)sc2ncnn12 (stereo not given)
Assay Target: Metabotropic glutamate receptor 5 (Homo sapiens)
Measured Metric: pIC50
Numeric Result: 7.30

Compound: Cc1c(C(C)OC(=O)Nc2ccccc2)sc2nc(-c3cccs3)nn12 (stereo not given)
Assay Target: Metabotropic glutamate receptor 5 (Homo sapiens)
Measured Metric: pIC50
Numeric Result: 8.10

Compound: Cc1c(C(C)OC(=O)Nc2ccccc2)sc2nc(C3CC3)nn12 (stereo not given)
Assay Target: Metabotropic glutamate receptor 5 (Homo sapiens)
Measured Metric: pIC50
Numeric Result: 7.90

Consider the compound shown here: Cc1c(C(C)OC(=O)Nc2ccc(Cl)cc2)sc2ncnn12 (stereo not given) What is its recorded pIC50?
5.60

Consider the compound shown here: Cc1c(C(C)OC(=O)Nc2ccccc2)sc2nc(-c3ccc(F)cc3)nn12 (stereo not given) What is its recorded pIC50?
8.00

----------
- Assay Protocol: Cmax in rat at 1.0 mg/kg, po
- Assay type: ADME, organism-based
- Set-up: dose 1 mg/kg, route oral
- Assay Conditions: in vivo
Measured Cmax accompanies every entry in the list below.
Quick note: give the figure in ng/mL, leave out the unit.

Compound Smiles: Cc1c([C@@H](C)OC(=O)Nc2cccc(F)c2)sc2nncn12
Measured Metric: Cmax
Numeric Result: 210

Next compound, Cmax to be filled in.
Consider the compound shown here: Cc1c([C@@H](C)OC(=O)Nc2ccccc2)sc2ncnn12 What is its recorded Cmax?
63

----------
- Assay Target: Metabotropic glutamate receptor 5 (Homo sapiens)
- Assay Protocol: Antagonist activity at human mGluR5 expressed in CHO cells assessed as glutamate induced calcium mobilization
Measured Metric: pIC50
Scale: pIC50 equals -log10([C]), with [C] in mol/L.

Solved entries (count: 2):
Compound: Cc1c(C(C)OC(=O)Nc2ccccc2)sc2nncn12 (stereo not given)
pIC50: 6.90

Compound: CC(OC(=O)Nc1ccccc1)c1cn2ncnc2s1 (stereo not given)
pIC50: 5.00

Consider the compound shown here: Cc1c(C(C)OC(=O)Nc2cccnc2)sc2ncnn12 (stereo not given) What is its recorded pIC50?
6.50

Consider the compound shown here: Cc1c(C(C)OC(=O)Nc2cccc(F)c2)sc2nncn12 (stereo not given) What is its recorded pIC50?
7.20

Consider the compound shown here: Cc1c([C@@H](C)OC(=O)Nc2ccccc2)sc2ncnn12 What is its recorded pIC50?
7.40
